Target: Androgen receptor (Mus musculus)
Assay: Antagonist activity against mouse androgen receptor assessed as reduction of 10 nM DHT-induced transcriptional activity at 10 uM after 24 hrs by cell-based luciferase reporter gene assay relative to control
result type: inhibition

Some compounds with known inhibition results, for comparison:
INSERT INTO measurements (record_smiles, system_under_test, result_type, reported_measurement) VALUES
  ('CCOc1ccc2c(c1OCC)CCN(c1ccc(C(=O)Nc3cccc(C)n3)cn1)C2', 'Androgen receptor (Mus musculus)', 'inhibition', '88.3%'),
  ('COc1cc2c(cc1OC)CN(c1ccc(C(=O)Nc3ccccn3)cn1)CC2', 'Androgen receptor (Mus musculus)', 'inhibition', '84.5%'),
  ('CCOc1ccc2c(c1OC)CCN(c1ccc(C(=O)Nc3cccc(OC)c3)cn1)C2', 'Androgen receptor (Mus musculus)', 'inhibition', '91.4%');

Let us examine a further case.
Q: Write down the reported inhibition of `CCOc1ccc2c(c1OCC)CCN(c1ccc(C(=O)Nc3cccc(OC)c3)cn1)C2` , test system: Androgen receptor (Mus musculus).
A: 87.9%

* * *

Let's look at some compounds and their measured Activity.
Molecular target: Androgen receptor (Mus musculus) (UniProt P19091)
Sequence (P19091 whole entry): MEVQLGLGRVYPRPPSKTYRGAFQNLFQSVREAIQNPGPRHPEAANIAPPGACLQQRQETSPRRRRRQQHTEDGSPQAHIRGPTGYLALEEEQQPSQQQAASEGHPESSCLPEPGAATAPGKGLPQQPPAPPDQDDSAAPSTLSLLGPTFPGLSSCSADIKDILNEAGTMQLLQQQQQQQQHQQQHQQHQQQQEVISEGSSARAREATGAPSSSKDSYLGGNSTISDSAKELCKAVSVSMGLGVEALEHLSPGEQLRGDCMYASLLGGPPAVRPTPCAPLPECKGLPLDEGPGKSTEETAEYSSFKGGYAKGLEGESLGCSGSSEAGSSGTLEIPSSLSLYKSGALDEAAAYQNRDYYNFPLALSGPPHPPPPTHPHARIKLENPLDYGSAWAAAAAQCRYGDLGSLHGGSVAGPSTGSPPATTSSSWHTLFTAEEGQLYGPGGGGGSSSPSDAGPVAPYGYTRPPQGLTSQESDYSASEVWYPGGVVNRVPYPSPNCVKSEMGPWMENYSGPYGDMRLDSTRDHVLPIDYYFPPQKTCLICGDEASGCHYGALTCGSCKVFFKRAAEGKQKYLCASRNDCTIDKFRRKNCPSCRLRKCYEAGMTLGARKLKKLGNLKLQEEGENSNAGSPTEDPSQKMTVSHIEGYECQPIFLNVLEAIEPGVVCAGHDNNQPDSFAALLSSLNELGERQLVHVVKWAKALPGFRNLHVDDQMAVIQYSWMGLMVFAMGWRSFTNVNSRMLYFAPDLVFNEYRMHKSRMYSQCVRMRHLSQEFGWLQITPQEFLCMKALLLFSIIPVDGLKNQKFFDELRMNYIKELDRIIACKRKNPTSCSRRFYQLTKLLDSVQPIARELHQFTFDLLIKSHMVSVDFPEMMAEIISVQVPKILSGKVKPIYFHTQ
Experiment: Agonist activity at mouse androgen receptor at 10 uM after 24 hrs by cell-based luciferase reporter gene assay relative to control
Write the answer as a number in %, unit excluded.

Some compounds with known Activity results, for comparison:
INSERT INTO assay_data (record_smiles, units_text, reported_measurement) VALUES
  ('CCOc1ccc2c(c1OCc1ccccc1)CCN(c1ccc(C(=O)N(C)c3cccc(C)n3)cn1)C2', '%', 1.6),
  ('COc1cccc(NC(=O)c2ccc(N3CCc4c(ccc(OC)c4OC)C3)nc2)c1', '%', 3.9),
  ('COc1cccc(NC(=O)c2ccc(N3CCc4cc(OC)ccc4C3)nc2)c1', '%', 3.1),
  ('Cc1cccc(NC(=O)c2ccc(N3CCc4ccccc4C3)nc2)n1', '%', 3);

Q: Endpoint output: Activity of `Cc1ccnc(NC(=O)c2ccc(Cl)nc2)c1` . Value?
A: 6.4

Q: Endpoint output: Activity of `COc1cc2c(c(OC)c1OC)CCN(c1ccc(C(=O)Nc3cccc(C)n3)cn1)C2` . Value?
A: 0.8

Q: Endpoint output: Activity of `Cc1ccnc(NC(=O)c2ccc(N3CCc4ccccc4C3)nc2)c1` . Value?
A: 3.6

Q: Endpoint output: Activity of `Cc1cccc(NC(=O)c2ccc(N3CCN(C)CC3)nc2)n1` . Value?
A: 14.1

Q: Endpoint output: Activity of `Cc1ccc(NC(=O)c2ccc(N3CCc4ccccc4C3)nc2)nc1` . Value?
A: 3

* * *

Target: UniProtKB P19091
Experiment: Agonist activity at mouse androgen receptor at 10 uM after 24 hrs by cell-based luciferase reporter gene assay relative to control
result type: Activity (%)
Write the answer as a number in %, unit excluded.

Some molecules with known Activity results, for comparison:
INSERT INTO measurements (record_smiles, result_type, reported_measurement) VALUES
  ('Cc1cccc(NC(=O)c2ccc(N3CCCCC3)nc2)n1', 'Activity', 6.8),
  ('Cc1cccc(NC(=O)c2ccc(N3CCc4cc(OCc5ccccc5)ccc4C3)nc2)n1', 'Activity', 4.5),
  ('COc1ccc2c(c1OC)CCN(c1ccc(C(=O)Nc3cccc(C)n3)cn1)C2', 'Activity', 4.7),
  ('COc1ccccc1NC(=O)c1ccc(N2CCc3ccccc3C2)nc1', 'Activity', 7.4),
  ('Cc1cccnc1NC(=O)c1ccc(N2CCc3ccccc3C2)nc1', 'Activity', 5);

Q: Write down the reported Activity of `Cc1cccnc1NC(=O)c1ccc(Cl)nc1` , test system: UniProtKB P19091.
A: 3.8

Q: Write down the reported Activity of `CCOc1ccc2c(c1OCC)CCN(c1ccc(C(=O)Nc3cccc(OC)c3)cn1)C2` , test system: UniProtKB P19091.
A: 0.4

Q: Write down the reported Activity of `O=C(Nc1ccccn1)c1ccc(Cl)nc1` , test system: UniProtKB P19091.
A: 4.9

Q: Write down the reported Activity of `O=C(Nc1ccccn1)c1ccc(N2CCc3ccccc3C2)nc1` , test system: UniProtKB P19091.
A: 5.6

Q: Write down the reported Activity of `COc1ccc(NC(=O)c2ccc(N3CCc4ccccc4C3)nc2)cn1` , test system: UniProtKB P19091.
A: 7.2

Q: Write down the reported Activity of `COc1cc2c(cc1OC)CN(c1ccc(C(=O)Nc3ncccc3C)cn1)CC2` , test system: UniProtKB P19091.
A: 3.1

Q: Write down the reported Activity of `O=C(Nc1ccccn1)c1ccc(C(=O)N2CCc3ccccc3C2)nc1` , test system: UniProtKB P19091.
A: 15

Q: Write down the reported Activity of `COc1ccc2c(c1)CCN(c1ccc(C(=O)Nc3ccc(C)cn3)cn1)C2` , test system: UniProtKB P19091.
A: 5.2

Q: Write down the reported Activity of `Cc1ccccc1NC(=O)c1ccc(N2CCc3ccccc3C2)nc1` , test system: UniProtKB P19091.
A: 10.4
